# assay_system: T1, recombinant human αvβ6 integrin (human, UniProt P06756 31-1048; P18564 22-709)
# T1 construct: integrin αv subunit, human; integrin β6 subunit, human; details of reagents are in the Supplemental Materials; Such bought integrins are, as I recall, soluble extracellular heterodimers; also called purified αvβ6; source: bought: Bio-Techne
# test_details: direct integrin binding assay (near-infrared fluorescence scan of plates); microtiter plates coated with αvβ6 or αvβ8; peptide-IRDye conjugates incubated 1 h, washed, bound fluorescence read with Odyssey CLx; EC50
# assay_setup: both partners purified
Bridge positions count the residues as written; N and C are the ends. Square brackets hold non-standard residues; d marks the D form. Ends that are not written are not given here. Lys(N3) = [N-]=[N+]=NCCCC[C@H](N)C(=O)O; Pra = C#CC[C@H](N)C(=O)O
observable: pEC50
Interpret pEC50 as the negative base-10 log of the concentration measured in mol/L.

Ask: What value of measured pEC50 is listed for C(maleimide‑IRDye 800CW)FETLRGDLRILSILR[Pra]QNL[Lys(N3)]KELQD-NH2 (triazole 17-21) [5a-IRDye conjugate] ?
Reply: 8.55

Data provenance: paper PMC9760430
